// data source = ChEMBL document CHEMBL1141413

biological target: Maltase-glucoamylase (Homo sapiens) (UniProt O43451); test: Inhibition of alpha-glucosidase in 1.20 mg/200 uL
Sequence (O43451 whole entry, looked up): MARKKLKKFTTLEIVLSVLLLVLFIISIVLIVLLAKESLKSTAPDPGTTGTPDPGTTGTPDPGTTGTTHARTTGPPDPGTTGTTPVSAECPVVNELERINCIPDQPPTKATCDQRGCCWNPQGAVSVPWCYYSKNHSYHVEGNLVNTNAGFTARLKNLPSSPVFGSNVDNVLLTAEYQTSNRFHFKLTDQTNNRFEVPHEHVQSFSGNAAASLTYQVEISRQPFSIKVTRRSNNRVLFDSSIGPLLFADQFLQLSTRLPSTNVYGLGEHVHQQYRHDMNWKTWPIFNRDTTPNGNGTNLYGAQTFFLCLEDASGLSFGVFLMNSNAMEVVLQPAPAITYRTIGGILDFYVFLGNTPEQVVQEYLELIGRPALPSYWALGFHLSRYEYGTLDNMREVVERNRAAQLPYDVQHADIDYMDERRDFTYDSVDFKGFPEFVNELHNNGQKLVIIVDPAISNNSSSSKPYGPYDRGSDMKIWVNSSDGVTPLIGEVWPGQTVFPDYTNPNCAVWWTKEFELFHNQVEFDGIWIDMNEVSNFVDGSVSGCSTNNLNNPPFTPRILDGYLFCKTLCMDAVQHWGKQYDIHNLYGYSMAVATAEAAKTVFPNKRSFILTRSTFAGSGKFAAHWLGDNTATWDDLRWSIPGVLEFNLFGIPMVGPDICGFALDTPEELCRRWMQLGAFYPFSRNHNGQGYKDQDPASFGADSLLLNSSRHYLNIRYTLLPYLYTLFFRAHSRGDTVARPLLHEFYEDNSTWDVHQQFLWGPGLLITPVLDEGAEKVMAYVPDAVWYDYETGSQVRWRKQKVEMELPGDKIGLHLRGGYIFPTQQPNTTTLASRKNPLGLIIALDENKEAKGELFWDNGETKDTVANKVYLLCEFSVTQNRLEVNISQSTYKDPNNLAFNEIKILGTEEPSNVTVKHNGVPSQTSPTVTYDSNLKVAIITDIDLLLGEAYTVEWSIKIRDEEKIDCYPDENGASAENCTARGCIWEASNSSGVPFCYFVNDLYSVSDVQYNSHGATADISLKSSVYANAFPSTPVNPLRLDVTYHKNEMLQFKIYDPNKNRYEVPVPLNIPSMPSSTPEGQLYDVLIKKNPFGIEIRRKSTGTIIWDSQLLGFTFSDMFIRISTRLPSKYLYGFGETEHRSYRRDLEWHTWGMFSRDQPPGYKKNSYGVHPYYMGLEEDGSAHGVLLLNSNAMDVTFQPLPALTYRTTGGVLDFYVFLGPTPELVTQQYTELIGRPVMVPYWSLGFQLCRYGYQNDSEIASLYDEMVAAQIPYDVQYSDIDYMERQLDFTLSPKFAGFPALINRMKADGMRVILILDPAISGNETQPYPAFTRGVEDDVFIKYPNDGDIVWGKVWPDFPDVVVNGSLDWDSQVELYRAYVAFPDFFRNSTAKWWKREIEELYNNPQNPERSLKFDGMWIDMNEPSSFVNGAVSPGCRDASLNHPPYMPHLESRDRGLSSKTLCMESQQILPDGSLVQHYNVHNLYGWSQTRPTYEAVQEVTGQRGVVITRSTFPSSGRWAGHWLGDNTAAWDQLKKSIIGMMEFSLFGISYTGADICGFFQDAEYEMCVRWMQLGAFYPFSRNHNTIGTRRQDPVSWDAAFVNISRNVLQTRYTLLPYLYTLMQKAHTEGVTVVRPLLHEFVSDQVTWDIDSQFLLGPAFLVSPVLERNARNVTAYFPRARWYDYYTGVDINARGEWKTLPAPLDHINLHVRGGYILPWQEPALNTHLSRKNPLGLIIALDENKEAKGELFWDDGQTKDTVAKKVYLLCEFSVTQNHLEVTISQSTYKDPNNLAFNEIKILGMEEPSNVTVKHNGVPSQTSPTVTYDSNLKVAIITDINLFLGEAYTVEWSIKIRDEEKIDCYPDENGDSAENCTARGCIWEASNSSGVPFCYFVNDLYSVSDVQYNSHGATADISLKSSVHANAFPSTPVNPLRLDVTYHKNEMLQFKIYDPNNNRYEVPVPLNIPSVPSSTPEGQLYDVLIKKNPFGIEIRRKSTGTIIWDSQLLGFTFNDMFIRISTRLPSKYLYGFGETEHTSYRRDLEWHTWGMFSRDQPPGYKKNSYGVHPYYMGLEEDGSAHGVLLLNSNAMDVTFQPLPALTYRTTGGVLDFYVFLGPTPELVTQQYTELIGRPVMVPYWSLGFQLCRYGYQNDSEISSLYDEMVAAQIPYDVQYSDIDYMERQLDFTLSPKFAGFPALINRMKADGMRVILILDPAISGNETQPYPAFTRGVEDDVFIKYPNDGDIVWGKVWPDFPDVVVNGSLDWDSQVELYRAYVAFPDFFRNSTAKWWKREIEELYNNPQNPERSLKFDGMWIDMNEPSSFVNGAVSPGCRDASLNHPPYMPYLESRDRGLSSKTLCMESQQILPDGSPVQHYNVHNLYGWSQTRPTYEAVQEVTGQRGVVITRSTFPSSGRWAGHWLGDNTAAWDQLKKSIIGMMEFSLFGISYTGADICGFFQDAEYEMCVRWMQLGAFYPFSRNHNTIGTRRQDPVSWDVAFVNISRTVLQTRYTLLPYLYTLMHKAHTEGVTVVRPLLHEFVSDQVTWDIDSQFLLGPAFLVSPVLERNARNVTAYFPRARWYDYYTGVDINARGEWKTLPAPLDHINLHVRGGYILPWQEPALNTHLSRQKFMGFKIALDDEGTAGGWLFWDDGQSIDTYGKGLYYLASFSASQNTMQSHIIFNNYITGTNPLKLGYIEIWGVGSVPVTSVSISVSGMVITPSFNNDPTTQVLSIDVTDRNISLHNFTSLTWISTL
Record form. Attribute: inhibition. Fill in for each entry.
Supply the numeric figure in %, leaving out any unit text.

Please state recorded inhibition (tested on Maltase-glucoamylase (Homo sapiens) (UniProt O43451)) of CC(=O)O[C@@H]1C=C(C2O[C@@H]3OC(O)C4=C[C@@H](OC(C)=O)[C@H]5C(C)(C)CCC[C@]5(C)[C@]43O2)[C@](O)(C=O)[C@@]2(C)CCCC(C)(C)[C@H]12 (some centres undefined)
89.4

How about `OC[C@H]1NC[C@H](O)[C@@H](O)[C@@H]1O` ?
100

How about COC1O[C@H]2O[C@H](C3=C[C@@H](OC(C)=O)[C@H]4C(C)(C)CCC[C@]4(C)[C@@]3(O)C=O)O[C@@]23C1=C[C@@H](OC(C)=O)[C@H]1C(C)(C)CCC[C@@]13C (some centres undefined) ?
26.5

How about `CC(=O)O[C@@H]1C=C(C=O)[C@](O)(C=O)[C@@]2(C)CCCC(C)(C)[C@H]12` ?
78.2

###

Record form. Attribute: MCC. Fill in for each entry.
assay: Cytotoxicity against E6SM cells; type: cell-based; conditions: human, read-out: MIC

Requested read-out: MCC. Entry: `Nc1nc2c(ncn2COCCO)c(=O)[nH]1`
> 500000 nM

How about CC(=O)O[C@@H]1C=C(C2O[C@@H]3OC(O)C4=C[C@@H](OC(C)=O)[C@H]5C(C)(C)CCC[C@]5(C)[C@]43O2)[C@](O)(C=O)[C@@]2(C)CCCC(C)(C)[C@H]12 (stereo partly drawn) ?
≥ 1030 nM

How about `CC(=O)O[C@@H]1C=C(C=O)[C@](O)(C=O)[C@@]2(C)CCCC(C)(C)[C@H]12` ?
≥ 2060 nM
